Hey, just so you know, these numbers are from patent US12570659B2.

target: IRAK4 (Homo sapiens (Human), UniProt Q9NWZ3)
Sequence (Q9NWZ3 whole entry, species assumed): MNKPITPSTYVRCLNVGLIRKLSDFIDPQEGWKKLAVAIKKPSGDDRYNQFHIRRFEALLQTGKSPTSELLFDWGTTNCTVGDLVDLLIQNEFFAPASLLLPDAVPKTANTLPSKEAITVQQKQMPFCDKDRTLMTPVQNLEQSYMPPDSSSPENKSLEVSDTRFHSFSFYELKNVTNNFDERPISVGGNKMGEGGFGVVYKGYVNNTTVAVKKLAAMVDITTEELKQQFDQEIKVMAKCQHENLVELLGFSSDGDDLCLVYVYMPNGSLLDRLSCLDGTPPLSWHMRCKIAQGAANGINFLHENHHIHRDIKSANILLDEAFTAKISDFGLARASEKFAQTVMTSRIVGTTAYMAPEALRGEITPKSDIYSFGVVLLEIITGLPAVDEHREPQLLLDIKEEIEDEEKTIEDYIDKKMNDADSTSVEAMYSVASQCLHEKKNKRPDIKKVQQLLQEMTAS
For each record, write down the corresponding pIC50.
Note on pIC50: it is the negative log10 of concentration, concentration in mol/L.

**Q:** For the molecule CC(C)(O)[C@H](F)CNC(=O)c1cnn2cc(-c3ccc(C#N)cn3)cc2c1NC1CCOCC1 [Example 20] , report pIC50.
**A:** 6.82

**Q:** For the molecule CC(C)CCNC(=O)c1cnn2cc(-c3ccncc3)cc2c1NC(C)C [Example 64] , report pIC50.
**A:** 7.85

**Q:** For the molecule CC(C)Nc1c(C(=O)NC[C@@H](F)C(C)(C)O)cnn2cc(-c3ccnc(N4CCOCC4)c3F)cc12 [Example 53] , report pIC50.
**A:** 7.00

**Q:** For the molecule Cc1cc(-c2cc3c(NCCC(C)(C)O)c(C(=O)NC[C@@H](F)C(C)(C)O)cnn3c2)ccn1 [Example 23] , report pIC50.
**A:** 6.96

**Q:** For the molecule CC(C)(O)[C@H](F)CNC(=O)c1cnn2cc(-c3cccnc3F)cc2c1NC1CCOCC1 [Example 8] , report pIC50.
**A:** 7.60

**Q:** For the molecule CC(C)Nc1c(C(=O)NC[C@@H](F)C(C)(C)O)cnn2cc(-c3cncs3)nc12 [Example 102] , report pIC50.
**A:** 7.66

**Q:** For the molecule CC(=O)N1CCC(NC(=O)c2cnn3cc(-c4ccncc4F)nc3c2NC(C)C)CC1 [Example 112] , report pIC50.
**A:** 7.96

**Q:** For the molecule CC(C)Nc1c(C(=O)NC[C@@H](F)C(C)(C)O)cnn2cc(-c3cncs3)cc12 [Example 55] , report pIC50.
**A:** 8.41

====

For each record, write down the corresponding IC50.
target: IRAK4 (Homo sapiens (Human)); experiment: IRAK4 Inhibition Assay; format: biochemical; conditions: ATP 500 μM; IRAK4 0.6 nM; 60 min room temperature
Quick reminder: number only, in µM, skip the unit.

**Q:** For the molecule CC(C)(O)[C@H](F)CNC(=O)c1cnn2cc(-c3cccnc3)cc2c1NC1CCOCC1 , report IC50.
**A:** 0.054

**Q:** For the molecule CC(C)Nc1c(C(=O)NCCN2CCOCC2)cnn2cc(-c3ccncc3)cc12 , report IC50.
**A:** 0.012

**Q:** For the molecule Cc1cc(F)ncc1-c1cn2ncc(C(=O)N[C@H]3C[C@H](C(C)(C)O)C3)c(NC(C)C)c2n1 , report IC50.
**A:** 0.096

**Q:** For the molecule CC(C)(O)[C@H](F)CNC(=O)c1cnc2cc(-c3cccnc3)nn2c1N[C@H]1CCN(c2cnc(F)nc2)C1 , report IC50.
**A:** 0.64

**Q:** For the molecule CC(C)Nc1c(C(=O)NC[C@@H](F)C(C)(C)O)cnn2cc(-c3cccnc3)cc12 , report IC50.
**A:** 0.016

**Q:** For the molecule CC(C)Nc1c(C(=O)NCCN2CCOCC2)cnn2cc(-c3ccncc3F)nc12 , report IC50.
**A:** 0.022

**Q:** For the molecule CC(=O)N[C@H]1CC[C@H](NC(=O)c2cnn3cc(-c4cn[nH]c4)cc3c2NC(C)C)CC1 , report IC50.
**A:** 0.011

**Q:** For the molecule CC(C)Nc1c(C(=O)NCCC(C)(C)O)cnn2cc(-c3ccncc3)nc12 , report IC50.
**A:** 0.062

**Q:** For the molecule CNC(=O)[C@H]1CC[C@H](NC(=O)c2cnn3cc(-c4ccc(C(N)=O)nc4)cc3c2NC(C)C)CC1 , report IC50.
**A:** 0.035

**Q:** For the molecule CC(C)(O)[C@H](F)CNC(=O)c1cnn2cc(-c3nccs3)cc2c1NC1CCOCC1 , report IC50.
**A:** 0.015

**Q:** For the molecule CC(C)(O)[C@H](F)CNC(=O)c1cnn2cc(-c3ccc(C#N)c(F)c3)cc2c1NC1CCOCC1 , report IC50.
**A:** 0.25

**Q:** For the molecule CC(=O)N[C@H]1CC[C@H](NC(=O)c2cnn3cc(-c4ccncc4)cc3c2NC(C)C)CC1 , report IC50.
**A:** 0.0021

**Q:** For the molecule CC(C)Nc1c(C(=O)N[C@H]2CC[C@H](O)CC2)cnn2cc(-c3ccncc3)cc12 , report IC50.
**A:** 0.0095

**Q:** For the molecule Cc1cc(F)ncc1-c1cc2c(NCCC(C)(C)O)c(C(=O)NC[C@@H](F)C(C)(C)O)cnn2c1 , report IC50.
**A:** 0.14

**Q:** For the molecule CC(C)Nc1c(C(=O)NC[C@@H](F)C(C)(C)O)cnn2cc(-c3cn[nH]c3)cc12 , report IC50.
**A:** 0.0067

**Q:** For the molecule CC(C)(O)[C@H](F)CNC(=O)c1cnn2cc(-c3cccnc3)cc2c1NC1CC1 , report IC50.
**A:** 0.011

**Q:** For the molecule CC(C)Nc1c(C(=O)N[C@H]2CC[C@H](C(=O)N3CCOCC3)CC2)cnn2cc(-c3ccncc3F)cc12 , report IC50.
**A:** 0.0027

**Q:** For the molecule Cc1ncccc1-c1cc2ncc(C(=O)NC[C@@H](F)C(C)(C)O)c(NC(C)C)n2n1 , report IC50.
**A:** 0.23

**Q:** For the molecule CC(C)Nc1c(C(=O)NC[C@@H](F)C(C)(C)O)cnc2cc(-c3cncc(C(C)(C)O)c3)nn12 , report IC50.
**A:** 0.56

**Q:** For the molecule CC(C)Nc1c(C(=O)NC[C@@H](F)C(C)(C)O)cnn2cc(-c3cccnc3)nc12 , report IC50.
**A:** 0.066

**Q:** For the molecule CC(C)Nc1c(C(=O)NC[C@@H](F)C(C)(C)O)cnc2cc(-c3ccncc3)nn12 , report IC50.
**A:** 0.016

**Q:** For the molecule CC(C)Nc1c(C(=O)NC[C@@H](F)C(C)(C)O)cnc2cc(-c3ccc(C#N)cc3)nn12 , report IC50.
**A:** 0.011

**Q:** For the molecule CC(C)Nc1c(C(=O)N[C@H]2CC[C@H](NC(=O)CO)CC2)cnn2cc(-c3ccncc3F)cc12 , report IC50.
**A:** 0.0065

**Q:** For the molecule Cc1ccc(-c2cc3ncc(C(=O)NC[C@@H](F)C(C)(C)O)c(NC(C)C)n3n2)cn1 , report IC50.
**A:** 0.02

**Q:** For the molecule CC(C)Nc1c(C(=O)NC[C@@H](F)C(C)(C)O)cnc2cc(-c3ccccc3)nn12 , report IC50.
**A:** 0.057

**Q:** For the molecule COc1cc(-c2cc3c(NC(C)C)c(C(=O)NCCC(C)(C)O)cnn3c2)c(F)cn1 , report IC50.
**A:** 0.0091

**Q:** For the molecule CC(C)Nc1c(C(=O)NC[C@@H](F)C(C)(C)O)cnc2cc(-c3cccc(=O)[nH]3)nn12 , report IC50.
**A:** 0.3

**Q:** For the molecule CC(C)Nc1c(C(=O)NC[C@@H](F)C(C)(C)O)cnn2cc(-c3cccc(C#N)c3)nc12 , report IC50.
**A:** 0.24

**Q:** For the molecule COC(=O)c1cncc(-c2cc3ncc(C(=O)NC[C@@H](F)C(C)(C)O)c(NC(C)C)n3n2)c1 , report IC50.
**A:** 0.21

**Q:** For the molecule CC(=O)N[C@H]1CC[C@H](NC(=O)c2cnn3cc(-c4cccnc4F)cc3c2NC(C)C)CC1 , report IC50.
**A:** 0.0092

**Q:** For the molecule Cc1cc(F)ncc1-c1cc2c(NC(C)C)c(C(=O)N[C@H]3CC[C@H](C(N)=O)CC3)cnn2c1 , report IC50.
**A:** 0.0076

====

quantity: IC50
I'd appreciate it if you included the unit after the number.

**Q:** Lab note: IRAK4 (Homo sapiens (Human)) assay, enter IC50 for CC(C)Nc1c(C(=O)NC[C@@H](F)C(C)(C)O)cnc2cc(-c3ccccc3F)nn12 here
**A:** 22 nM

**Q:** Lab note: IRAK4 (Homo sapiens (Human)) assay, enter IC50 for CC(C)(O)CCNc1c(C(=O)NC[C@@H](F)C(C)(C)O)cnn2cc(-c3cccnc3F)cc12 here
**A:** 180 nM

**Q:** Lab note: IRAK4 (Homo sapiens (Human)) assay, enter IC50 for CNC(=O)c1cnc2cc(-c3ccc(C#N)cc3)nn2c1NC(C)C here
**A:** 240 nM

**Q:** Lab note: IRAK4 (Homo sapiens (Human)) assay, enter IC50 for CC(C)Nc1c(C(=O)NC[C@@H](F)C(C)(C)O)cnn2cc(Nc3cc(C#N)ccn3)cc12 here
**A:** 620 nM

**Q:** Lab note: IRAK4 (Homo sapiens (Human)) assay, enter IC50 for CC(C)Nc1c(C(=O)NC[C@@H](F)C(C)(C)O)cnn2cc(-c3ccncc3)nc12 here
**A:** 15 nM

**Q:** Lab note: IRAK4 (Homo sapiens (Human)) assay, enter IC50 for CC(C)Nc1c(C(=O)N[C@H]2CC[C@H](c3nc[nH]n3)CC2)cnn2cc(-c3ccncc3)cc12 here
**A:** 3.7 nM

**Q:** Lab note: IRAK4 (Homo sapiens (Human)) assay, enter IC50 for CC(=O)N[C@H]1CC[C@H](NC(=O)c2cnn3cc(-c4ccncc4)nc3c2NC(C)C)CC1 here
**A:** 11 nM

**Q:** Lab note: IRAK4 (Homo sapiens (Human)) assay, enter IC50 for CC(=O)N[C@H]1CC[C@H](NC(=O)c2cnn3cc(-c4ccc(C(N)=O)cc4F)cc3c2NC(C)C)CC1 here
**A:** 92 nM
